Taken from ChEMBL document CHEMBL3785069.

# Test Method Notes: Cytotoxicity against human HGF cells after 48 hrs by MTT assay
# Assay type: cell-based
Value Type: CC50 at 48 h (µM)
Numbers only, in µM.

> print(dat)
                                   compound  number
1  COCCSCCC(=O)N1C/C(=C\c2ccc(F)cc2)C(=O)/C(=C/c2ccc(F)cc2)C1    5.27
2  N[C@@H](Cc1ccc(N(CCCl)CCCl)cc1)C(=O)O [MELPHALAN]      78
3  COCCSCCC(=O)N1C/C(=C\c2ccccc2)C(=O)/C(=C/c2ccccc2)C1    9.67

Hello, I would appreciate it if you could give CC50 at 48 h for each entry below.
1. COCCSCCC(=O)N1C/C(=C\c2ccc(C)cc2)C(=O)/C(=C/c2ccc(C)cc2)C1
2. COCCSCCC(=O)N1C/C(=C\c2ccc([N+](=O)[O-])cc2)C(=O)/C(=C/c2ccc([N+](=O)[O-])cc2)C1
3. COCCOCCC(=O)N1C/C(=C\c2ccccc2)C(=O)/C(=C/c2ccccc2)C1

Reply |
10.3
3.52
9.24

====

# Test Method Notes: Cytotoxicity against human HSC3 cells after 48 hrs by MTT assay
# Format: functional
# Conditions Used: HSC-3, 48 h
Value Type: CC50 (µM)
Numbers only, in µM.

Please review the entries below; each comes with its answer.
> print(dat)
                                   molecule  value.type  measure.unit  number
1  COCCSCCC(=O)N1C/C(=C\c2ccc(Cl)cc2)C(=O)/C(=C/c2ccc(Cl)cc2)C1        CC50            µM    1.03
2  COCCSCCC(=O)N1C/C(=C\c2ccc(OC)cc2)C(=O)/C(=C/c2ccc(OC)cc2)C1        CC50            µM    2.27
3  COCC[S+]([O-])CCC(=O)N1C/C(=C\c2ccc(F)cc2)C(=O)/C(=C/c2ccc(F)cc2)C1 (centres undefined)        CC50            µM    1.01
4  COCCOCCC(=O)N1C/C(=C\c2ccccc2)C(=O)/C(=C/c2ccccc2)C1        CC50            µM    1.32

Hello, I would appreciate it if you could give CC50 for each entry below.
1. COCCSCCC(=O)N1C/C(=C\c2ccccc2)C(=O)/C(=C/c2ccccc2)C1
2. COCC[S+](C)CCC(=O)N1C/C(=C\c2ccccc2)C(=O)/C(=C/c2ccccc2)C1.F[B-](F)(F)F (centres undefined)

Reply |
[1.47, 1.43]

Hello, I would appreciate it if you could give CC50 for each entry below.
1. COCCSCCC(=O)N1C/C(=C\c2ccc(OC)c(OC)c2)C(=O)/C(=C/c2ccc(OC)c(OC)c2)C1
2. N[C@@H](Cc1ccc(N(CCCl)CCCl)cc1)C(=O)O
3. COCC[S+]([O-])CCC(=O)N1C/C(=C\c2ccccc2)C(=O)/C(=C/c2ccccc2)C1 (centres undefined)

Reply |
[1.22, 9.9, 2.1]

====

# Test Method Notes: Cytotoxicity against human HSC4 cells after 48 hrs by MTT assay
# Type: functional
# Conditions Used: HSC-4, 48 h
So basically: is CC50 under 900 nM? Then Satisfied. Not under? Then Not satisfied.

> print(dat)
                                   compound  assigned.category
1  COCCSCCC(=O)N1C/C(=C\c2ccc(OC)cc2)C(=O)/C(=C/c2ccc(OC)cc2)C1      Not satisfied
2  COCCSCCC(=O)N1C/C(=C\c2ccc(OC)c(OC)c2)C(=O)/C(=C/c2ccc(OC)c(OC)c2)C1          Satisfied
3  COCC[S+]([O-])CCC(=O)N1C/C(=C\c2ccc(F)cc2)C(=O)/C(=C/c2ccc(F)cc2)C1 (stereo not given)          Satisfied
4  COCCSCCC(=O)N1C/C(=C\c2ccc(Cl)cc2)C(=O)/C(=C/c2ccc(Cl)cc2)C1          Satisfied

Ask | Dear colleague, could you confirm whether CC50 of COCCSCCC(=O)N1C/C(=C\c2ccccc2)C(=O)/C(=C/c2ccccc2)C1 falls below 900 nM? Thanks.
Reply | Not satisfied

====

# System: HSC-4
# Test Method Notes: Selectivity index, ratio of average CC50 for human HGF and HPLF cells to CC50 for human HSC4 cells
# Conditions Used: pooled result: one value given for 2 cell lines, strains, targets or settings
So basically: is Selectivity Index under 9? Then criterion met. Not under? Then criterion not met.

Ask | Dear colleague, could you confirm whether Selectivity Index of COCCSCCC(=O)N1C/C(=C\c2ccc(OC)c(OC)c2)C(=O)/C(=C/c2ccc(OC)c(OC)c2)C1 falls below 9? Thanks.
Reply | criterion not met

====

# Test Method Notes: Cytotoxicity against human HGF cells after 48 hrs by MTT assay
# Assay type: cell-based
So basically: is CC50 at 48 h under 10 µM? Then Yes. Not under? Then No.

Solved cases (4 shown):
> print(dat)
                                   molecule  assigned.category
1  COCCS(=O)(=O)CCC(=O)N1C/C(=C\c2ccccc2)C(=O)/C(=C/c2ccccc2)C1                Yes
2  COCCSCCC(=O)N1C/C(=C\c2ccc(Cl)cc2)C(=O)/C(=C/c2ccc(Cl)cc2)C1                Yes
3  COCC[S+]([O-])CCC(=O)N1C/C(=C\c2ccc(F)cc2)C(=O)/C(=C/c2ccc(F)cc2)C1 (configuration not stated)                Yes
4  COCCSCCC(=O)N1C/C(=C\c2ccc(OC)cc2)C(=O)/C(=C/c2ccc(OC)cc2)C1                 No

Ask | Dear colleague, could you confirm whether CC50 at 48 h of COCC[S+]([O-])CCC(=O)N1C/C(=C\c2ccccc2)C(=O)/C(=C/c2ccccc2)C1 (configuration not stated) falls below 10 µM? Thanks.
Reply | Yes

====

# Test system: HSC-4
# Test Method Notes: Selectivity index, ratio of average CC50 for human HGF and HPLF cells to CC50 for human HSC4 cells
# Conditions Used: pooled result: one value given for 2 cell lines, strains, targets or settings
So basically: is Selectivity Index under 8? Then Yes. Not under? Then No.

> print(dat)
                                   compound  assigned.category
1  COCCSCCC(=O)N1C/C(=C\c2ccc([N+](=O)[O-])cc2)C(=O)/C(=C/c2ccc([N+](=O)[O-])cc2)C1                 No

Okay, now this compound:
Ask | Dear colleague, could you confirm whether Selectivity Index of COCCSCCC(=O)N1C/C(=C\c2ccc(F)cc2)C(=O)/C(=C/c2ccc(F)cc2)C1 falls below 8? Thanks.
Reply | No

====

# Tested on: HSC-4
# Test Method Notes: Selectivity index, ratio of average CC50 for human HGF and HPLF cells to CC50 for human HSC4 cells
# Conditions Used: pooled result: one value given for 2 cell lines, strains, targets or settings
I'd be grateful if you could share measured Selectivity Index for these entries.
Give bare numbers.

Please review the entries below; each comes with its answer.
> print(dat)
                                   compound         value.type  number
1  COCCSCCC(=O)N1C/C(=C\c2ccc(Cl)cc2)C(=O)/C(=C/c2ccc(Cl)cc2)C1  Selectivity Index    6.93
2  COCCSCCC(=O)N1C/C(=C\c2ccc(C)cc2)C(=O)/C(=C/c2ccc(C)cc2)C1  Selectivity Index    8.12
3  COCC[S+]([O-])CCC(=O)N1C/C(=C\c2ccccc2)C(=O)/C(=C/c2ccccc2)C1 (stereo unspecified)  Selectivity Index    8.92
4  COCCS(=O)(=O)CCC(=O)N1C/C(=C\c2ccccc2)C(=O)/C(=C/c2ccccc2)C1  Selectivity Index    6.93
5  COCCOCCC(=O)N1C/C(=C\c2ccccc2)C(=O)/C(=C/c2ccccc2)C1  Selectivity Index    7.41

Ask | Would you mind telling me what Selectivity Index value was observed for COCCSCCC(=O)N1C/C(=C\c2ccccc2)C(=O)/C(=C/c2ccccc2)C1 ?
Reply | 7.07
